Biological target: BRD9 bromodomain (Flag-BRD9 P133-K239; Swiss Prot Q9H8M2) (Homo sapiens, UniProt Q9H8M2)
Construct: His-Flag-BRD9 (P133-K239); Swiss Prot Q9H8M2; His6 with TEV site (mgsshhhhhhenlyfq/) (N, cleaved yes)
Sequence (Q9H8M2 133-239): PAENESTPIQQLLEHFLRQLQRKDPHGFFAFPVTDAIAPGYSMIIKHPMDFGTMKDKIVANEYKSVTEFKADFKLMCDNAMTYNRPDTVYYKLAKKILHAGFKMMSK
Assay: BRD9 bromodomain TR-FRET competition binding assay
Settings: 3 nM Flag-BRD9, 3.75 nM biotinylated ligand, 90 minutes at room temperature
Endpoint Label: IC50

[[record]]
compound = "Cn1cc(-c2ccc(OCC(=O)NCCCCCCCCNc3cccc4c3C(=O)N(C3CCC(=O)NC3=O)C4=O)c(C(F)(F)F)c2)c2sc(C(=N)NC3CCS(=O)(=O)CC3)cc2c1=O (stereo not shown)"
target_desc = "BRD9 bromodomain (Flag-BRD9 P133-K239; Swiss Prot Q9H8M2) (Homo sapiens, UniProt Q9H8M2)"
result = "> 10 nM"

[[record]]
compound = "COc1cc(-c2cn(C)c(=O)c3cc(NC(=O)[C@@H]4CCCN(C(=O)CCCCOc5cccc6c5C(=O)N(C5CCC(=O)NC5=O)C6=O)C4)sc23)cc(OC)c1CN(C)C (stereo partly shown)"
target_desc = "BRD9 bromodomain (Flag-BRD9 P133-K239; Swiss Prot Q9H8M2) (Homo sapiens, UniProt Q9H8M2)"
result = "> 100 nM"


Please supply IC50 for each of the following items, keeping them in order.
1. COc1cc(-c2cn(C)c(=O)c3cc(NC(=O)C4CCCN(C(=O)CCOCCOCCNc5cccc6c5C(=O)N(C5CCC(=O)NC5=O)C6=O)C4)sc23)cc(OC)c1CN(C)C (stereo not shown)
2. COc1cc(-c2cn(C)c(=O)c3cc(NC(=O)C4CN(C)CCO4)sc23)cc(OC)c1CN(C)C (stereo not shown)

1: > 100 nM; 2: > 10 nM
